From: patent US11753408B2

protocol-details: Microsomal stability (rat)
Format: in vitro ADME
measurement-parameters: rat microsomes
value-type: Microsomal Stability (rat) T1/2 (min)
// units = min; emit number, no label

Entry under review: O=C(c1ccc(-n2c(=O)ccc3cnc4ccc(-c5cccc(O)c5)cc4c32)cc1)N1CCOCC1 . Reported Microsomal Stability (rat) T1/2?
12.7

Requested read-out: Microsomal Stability (rat) T1/2. Entry: O=C(NC1CCC1)c1ccc(-n2c(=O)ccc3cnc4ccc(-c5ccc(Cl)cc5)cc4c32)cc1
8

Query (compound): O=C(NC1CCCC1)c1ccc(-n2c(=O)ccc3cnc4ccc(-c5ccc(Cl)cc5)cc4c32)cc1 ; field requested: Microsomal Stability (rat) T1/2
5.6

Returns the measured Microsomal Stability (rat) T1/2 for the input compound. Input: CS(=O)(=O)c1cccc(-n2c(=O)ccc3cnc4ccc(-c5ccc(N)nc5)cc4c32)c1
7.1

----------
Provide the recorded Sol @ pH 7.4 (ug/mL) for the entries that follow.
protocol-details: Solubility at pH 7.4
Assay type: physicochemical

Item Cc1ccc(C#N)cc1-n1c(=O)ccc2cnc3ccc(-c4ccc(N)nc4)cc3c21 has what recorded Sol @ pH 7.4 (ug/mL)?
1.1 ug/mL

I would be grateful if you could share the reported Sol @ pH 7.4 (ug/mL) for Nc1ccc(-c2ccc3ncc4ccc(=O)n(-c5ccc6c(c5)NC(=O)C6)c4c3c2)cn1 .
<1 ug/mL

Give the measured Sol @ pH 7.4 (ug/mL) of CCNS(=O)(=O)c1ccc(-n2c(=O)ccc3cnc4ccc(-c5ccc(Cl)cc5)cc4c32)cc1 .
<1.0 ug/mL

Value lookup for Sol @ pH 7.4 (ug/mL); key = CN(C)CCc1ccc(-c2ccc3ncc4ccc(=O)n(-c5ccc6c(c5)CNC6=O)c4c3c2)cc1
13.1 ug/mL

What Sol @ pH 7.4 (ug/mL) value was documented for this compound, CS(=O)(=O)c1ccc(-n2c(=O)ccc3cnc4ccc(-c5ccc(Cl)c(O)c5)cc4c32)cc1 ?
1.2 ug/mL

Bench note: what Sol @ pH 7.4 (ug/mL) did Nc1ccc(-c2ccc3ncc4ccc(=O)n(-c5ccc6c(c5)CC(=O)N6)c4c3c2)cn1 show?
<1.0 ug/mL

Given the compound Nc1ccc(-c2ccc3ncc4ccc(=O)n(-c5ccc(S(N)(=O)=O)cc5)c4c3c2)cn1 , what is its reported Sol @ pH 7.4 (ug/mL)?
<1.0 ug/mL

Item CN(C)Cc1ccc(-c2ccc3ncc4ccc(=O)n(-c5cccc(C#N)c5)c4c3c2)cc1 has what recorded Sol @ pH 7.4 (ug/mL)?
>64.0 ug/mL

----------
target-or-system: mTOR (Homo sapiens)
protocol-details: mTOR activity (no method described)
Type: biochemical
value-type: mTOR (µM)
Reply with just the number (in µM).

Reported mTOR, compound O=C(NCC(F)(F)F)c1ccc(-n2c(=O)ccc3cnc4ccc(-c5ccc(Cl)cc5)cc4c32)cc1 : ____
2.689

Please look up its mTOR: COc1cc(C(=O)NCCN2CCNCC2)ccc1-n1c(=O)ccc2cnc3ccc(-c4ccc(Cl)cc4)cc3c21
2.719

Bench note: what mTOR did CN(C)Cc1ccc(-c2ccc3ncc4ccc(=O)n(-c5ccc(C(=O)N6CCOCC6)cc5)c4c3c2)cc1 show?
3.776

Param item = O=C(NCCN1CCOCC1)c1ccc(-n2c(=O)ccc3cnc4ccc(-c5ccc(F)cc5)cc4c32)cc1 ; retrieve measured mTOR.
4.985

What value of measured mTOR is listed for COc1cc(C(=O)N2CCOCC2)ccc1-n1c(=O)ccc2cnc3ccc(-c4ccc(CN(C)C)cc4)cc3c21 ?
8.29

Tell me the measured mTOR of Cc1cc(C(=O)NC2CCN(CCO)CC2)ccc1-n1c(=O)ccc2cnc3ccc(-c4ccc(Cl)cc4)cc3c21 , please.
1.317

Any idea what mTOR was measured for Cc1cc(C(=O)NCCN(C)C)ccc1-n1c(=O)ccc2cnc3ccc(-c4ccc(Cl)cc4)cc3c21 ?
4.9

Param item = Nc1cccc(-c2ccc3ncc4ccc(=O)n(-c5ccc(C(=O)N6CCOCC6)cc5)c4c3c2)c1 ; retrieve measured mTOR.
0.2021

Requested read-out: mTOR. Entry: CCN(CC)CCNC(=O)c1ccc(-n2c(=O)ccc3cnc4ccc(-c5ccc(Cl)cc5)cc4c32)c(OC)c1
14.76

Which value of mTOR has been reported for CN(C)CCOc1ccc(-c2ccc3ncc4ccc(=O)n(-c5ccc(C(=O)N6CCOCC6)cc5)c4c3c2)cc1 in the records?
3.267

Consider the compound O=C(NO)c1ccc(-n2c(=O)ccc3cnc4ccc(-c5ccc(Cl)cc5)cc4c32)cc1 and give its measured mTOR.
0.2376

Report mTOR for O=C(NCCC1CCN(C2COC2)CC1)c1ccc(-n2c(=O)ccc3cnc4ccc(-c5ccc(Cl)cc5)cc4c32)cc1 please.
8.864

Which mTOR value belongs to CCN(CC)CCNC(=O)c1ccc(-n2c(=O)ccc3cnc4ccc(-c5ccc(Cl)cc5)cc4c32)cc1 ?
9.354

What value of measured mTOR is listed for Cc1cc(N2CCNCC2)c(C#N)cc1-n1c(=O)n(C)c2cnc3ccc(-c4ccc(Cl)cc4)cc3c21 ?
15.87

Look at this compound and give its reported mTOR. CN(C)C(=O)c1cccc(-n2c(=O)ccc3cnc4ccc(-c5ccc(N)nc5)cc4c32)c1
0.4949

----------
target-or-system: UniProt P42345
protocol-details: mTOR activity (no method described)
Assay type: biochemical
value-type: log10(mTOR) (log10 of the value in nM)
Hey, these are logged values: log10 of mTOR, nM being the unit before logging.

Would you mind telling me what log10(mTOR) value was observed for Cc1cc(NCCN(C)C)c(C#N)cc1-n1c(=O)n(C)c2cnc3ccc(-c4cccc(C#N)c4)cc3c21 ?
3.66

Suppose we examine the compound O=C(c1ccc(-n2c(=O)ccc3cnc4ccc(-c5ccc(CCN6CCOCC6)cc5)cc4c32)cc1)N1CCOCC1 ; what log10(mTOR) value has been reported?
3.16

Endpoint output: log10(mTOR) of COc1cc(C(=O)NCCN(C)c2ccccc2)ccc1-n1c(=O)ccc2cnc3ccc(-c4ccc(Cl)cc4)cc3c21 . Value?
5.00

State the recorded log10(mTOR) for this entry: NCCc1ccc(-c2ccc3ncc4ccc(=O)n(-c5ccc(C(=O)N6CCOCC6)cc5)c4c3c2)cc1
2.90

# log10(mTOR) lookup, item CC(=O)N1CCN(c2cc(C)c(-n3c(=O)n(C)c4cnc5ccc(-c6ccc(F)cc6)cc5c43)cc2C#N)CC1
3.27

Name the reported log10(mTOR) value associated with the compound CCN(CC)CCCNC(=O)c1ccc(-n2c(=O)ccc3cnc4ccc(-c5ccc(Cl)cc5)cc4c32)c(C)c1
3.68

Given the entry O=C(c1ccc(-n2c(=O)ccc3cnc4ccc(-c5ccc(Cl)cc5)cc4c32)cc1)N(C1CCCCC1)C1CC1 , report its measured log10(mTOR).
4.66

Quick check: log10(mTOR) of CN(C)CCCNC(=O)c1ccc(-n2c(=O)ccc3cnc4ccc(-c5ccc(Cl)cc5)cc4c32)cc1 ?
3.41

Requested field: log10(mTOR). Item: NC(=O)c1ccc(-n2c(=O)ccc3cnc4ccc(-c5ccc(N)nc5)cc4c32)cc1
1.29

What value of measured log10(mTOR) is listed for O=C(c1ccc(-n2c(=O)ccc3c[n+]([O-])c4ccc(-c5ccc(Cl)cc5)cc4c32)cc1)N(CCO)CCO ?
4.70

Return reported log10(mTOR); argument: CNC(=O)c1ccc(-n2c(=O)ccc3cnc4ccc(-c5ccc(CN(C)C)cc5)cc4c32)cc1
3.88

Please give the measured log10(mTOR) for this compound: CC(C)NC(=O)c1ccc(-n2c(=O)ccc3cnc4ccc(-c5ccc(Cl)cc5)cc4c32)cc1
3.11

Would you mind telling me what log10(mTOR) value was observed for COC(=O)c1cc(-c2ccc3ncc4ccc(=O)n(-c5ccc(C(=O)N6CCOCC6)cc5)c4c3c2)ccc1Cl ?
2.90

log10(mTOR) for O=Cc1ccc(-c2ccc3ncc4ccc(=O)n(-c5ccc(C(=O)N6CCOCC6)cc5)c4c3c2)cn1 ?
2.19

Recorded log10(mTOR) of Cc1cc(C(=O)NCCN2CCCC2)ccc1-n1c(=O)ccc2cnc3ccc(-c4ccc(F)cc4)cc3c21 , please.
4.27

Consider the compound shown here: CN(C)Cc1ccc(-c2ccc3ncc4ccc(=O)n(-c5ccc(C(=O)N6CC7CC6CN7C)cc5)c4c3c2)cc1 (centres unmarked) What is its recorded log10(mTOR)?
4.70

log10(mTOR) lookup needed for O=C(c1ccc(-n2c(=O)ccc3cnc4ccc(-c5ccc(Cl)cc5)cc4c32)cc1)N(CCO)CCO , thanks.
2.89

# query: log10(mTOR) of entry NC1(c2ccc(-c3ccc4ncc5ccc(=O)n(-c6ccc(C(=O)NC7CC7)cc6)c5c4c3)cc2)CC1
3.15

Would you mind telling me what log10(mTOR) value was observed for O=C(NC1CC1)c1ccc(-n2c(=O)ccc3cnc4ccc(-c5ccc(F)c(O)c5)cc4c32)cc1 ?
2.71

For O=C(c1ccc(-n2c(=O)ccc3c(F)nc4ccc(-c5ccc(Cl)cc5)cc4c32)cc1)N1CCOCC1 , what is its reported log10(mTOR)?
5.00

Using the record for O=C(NCCCN(CCO)CCO)c1ccc(-n2c(=O)ccc3cnc4ccc(-c5ccc(Cl)cc5)cc4c32)cc1 , report its log10(mTOR).
2.82

Requested field: log10(mTOR). Item: CCC(=O)N(C)CCNC(=O)c1ccc(-n2c(=O)ccc3cnc4ccc(-c5ccc(Cl)cc5)cc4c32)cc1
3.53

Given the compound CCNC(=O)c1ccc(-n2c(=O)ccc3cnc4ccc(-c5ccc(Cl)cc5)cc4c32)cc1 , what is its reported log10(mTOR)?
2.92

# query: log10(mTOR) of entry O=C(c1ccc(-n2c(=O)ccc3cnc4ccc(-c5ccc(CO)cc5)cc4c32)cc1)N1CCOCC1
2.35

// log10(mTOR) lookup, key: CCN(CC)Cc1ccc(-c2ccc3ncc4ccc(=O)n(-c5ccc(C(=O)N6CCOCC6)cc5)c4c3c2)cc1
4.07

So what's the measured log10(mTOR) for this one? O=C(c1ccc(-n2c(=O)ccc3cnc4ccc(-c5ccc(Cl)cc5)cc4c32)cc1Cl)N1CCOCC1
2.66

Record request: log10(mTOR) value, item COc1cc(C(=O)NCCN(C)C)ccc1-n1c(=O)ccc2cnc3ccc(-c4ccc(Cl)cc4)cc3c21
3.93

Tell me the measured log10(mTOR) of COc1cc(C(=O)NCCN2CCC2)ccc1-n1c(=O)ccc2cnc3ccc(-c4ccc(Cl)cc4)cc3c21 , please.
3.93

Fill in: log10(mTOR) of O=C(c1ccc(-n2c(=O)ccc3cnc4ccc(-c5ccc(Cl)cc5)cc4c32)c(Cl)c1)N1CCOCC1 is ___
3.55
